Reference source for all entries: the NIST ThermoML archive (doi:10.1016/j.jct.2010.01.004)

So I've got a bunch of molecules here, and I need their activity coefficient values.
- Measurement protocol: activity coefficient (dimensionless); of the first substance listed, at infinite dilution; xn = mol fraction of the nth substance listed
- Cond: 348.15 K; Liquid; Chromatography; x1 = 0
Numbers only.

CCO [ethanol] + CC(C)C[P+](C)(CC(C)C)CC(C)C.Cc1ccc(S(=O)(=O)[O-])cc1 | 0.266
O [water] + CC(C)C[P+](C)(CC(C)C)CC(C)C.Cc1ccc(S(=O)(=O)[O-])cc1 | 0.524
c1ccsc1 [thiophene] + CC(C)C[P+](C)(CC(C)C)CC(C)C.Cc1ccc(S(=O)(=O)[O-])cc1 | 0.805

Any idea what activity coefficient was measured for CCCCO [butan-1-ol] + CC(C)C[P+](C)(CC(C)C)CC(C)C.Cc1ccc(S(=O)(=O)[O-])cc1 ?
0.328

====

- Measurement protocol: activity coefficient (dimensionless); of the first substance listed, at infinite dilution; xn = mol fraction of the nth substance listed
- Cond: 348.15 K; Liquid; Chromatography; x1 = 0
Readout name: activity coefficient
One number for each entry.

c1ccccc1 [benzene] + CC(C)C[P+](C)(CC(C)C)CC(C)C.Cc1ccc(S(=O)(=O)[O-])cc1 | 1.21

Please state, for each entry, its recorded activity coefficient.
1. Cc1ccccc1 [toluene] + CC(C)C[P+](C)(CC(C)C)CC(C)C.Cc1ccc(S(=O)(=O)[O-])cc1
2. CCCCCO [pentan-1-ol] + CC(C)C[P+](C)(CC(C)C)CC(C)C.Cc1ccc(S(=O)(=O)[O-])cc1
3. Cc1cccc(C)c1 [1,3-dimethylbenzene] + CC(C)C[P+](C)(CC(C)C)CC(C)C.Cc1ccc(S(=O)(=O)[O-])cc1
4. Cc1ccc(C)cc1 [1,4-dimethylbenzene] + CC(C)C[P+](C)(CC(C)C)CC(C)C.Cc1ccc(S(=O)(=O)[O-])cc1
5. CO [methanol] + CC(C)C[P+](C)(CC(C)C)CC(C)C.Cc1ccc(S(=O)(=O)[O-])cc1
6. C1CCOC1 [tetrahydrofuran] + CC(C)C[P+](C)(CC(C)C)CC(C)C.Cc1ccc(S(=O)(=O)[O-])cc1

[1.65, 0.346, 2.28, 2.23, 0.175, 1.05]

====

So I've got a bunch of molecules here, and I need their activity coefficient values.
- Measurement protocol: activity coefficient (dimensionless); of the first substance listed, at infinite dilution; xn = mol fraction of the nth substance listed
- Cond: 308.15 K; Liquid; Chromatography; x1 = 0
Answers are plain numbers.

Solved cases below.
C=CCCCCC [1-heptene] + CC(C)C[P+](C)(CC(C)C)CC(C)C.Cc1ccc(S(=O)(=O)[O-])cc1 | 14.6
c1ccccc1 [benzene] + CC(C)C[P+](C)(CC(C)C)CC(C)C.Cc1ccc(S(=O)(=O)[O-])cc1 | 1.42
C1CCCCC1 [cyclohexane] + CC(C)C[P+](C)(CC(C)C)CC(C)C.Cc1ccc(S(=O)(=O)[O-])cc1 | 14.5
CCCCCC [hexane] + CC(C)C[P+](C)(CC(C)C)CC(C)C.Cc1ccc(S(=O)(=O)[O-])cc1 | 32.2
C1CCCC1 [cyclopentane] + CC(C)C[P+](C)(CC(C)C)CC(C)C.Cc1ccc(S(=O)(=O)[O-])cc1 | 13.5

Please state, for each entry, its recorded activity coefficient.
1. C=CCCC [1-pentene] + CC(C)C[P+](C)(CC(C)C)CC(C)C.Cc1ccc(S(=O)(=O)[O-])cc1
2. CCCCC [pentane] + CC(C)C[P+](C)(CC(C)C)CC(C)C.Cc1ccc(S(=O)(=O)[O-])cc1
3. CCCCCCCCC [nonane] + CC(C)C[P+](C)(CC(C)C)CC(C)C.Cc1ccc(S(=O)(=O)[O-])cc1

1. 20.7
2. 41.5
3. 24.7

====

- Measurement protocol: activity coefficient (dimensionless); of the first substance listed, at infinite dilution; xn = mol fraction of the nth substance listed
- Cond: 368.15 K; Liquid; Chromatography; x1 = 0
Readout name: activity coefficient

CO [methanol] + CC(C)C[P+](C)(CC(C)C)CC(C)C.Cc1ccc(S(=O)(=O)[O-])cc1 | 0.179

Please state, for each entry, its recorded activity coefficient.
1. Cc1ccccc1C [1,2-dimethylbenzene] + CC(C)C[P+](C)(CC(C)C)CC(C)C.Cc1ccc(S(=O)(=O)[O-])cc1
2. Cc1ccc(C)cc1 [1,4-dimethylbenzene] + CC(C)C[P+](C)(CC(C)C)CC(C)C.Cc1ccc(S(=O)(=O)[O-])cc1
3. Cc1cccc(C)c1 [1,3-dimethylbenzene] + CC(C)C[P+](C)(CC(C)C)CC(C)C.Cc1ccc(S(=O)(=O)[O-])cc1

1. 2.01
2. 2.21
3. 2.23

====

- Measurement protocol: activity coefficient (dimensionless); of the first substance listed, at infinite dilution; xn = mol fraction of the nth substance listed
- Cond: 338.15 K; Liquid; Chromatography; x1 = 0
Readout name: activity coefficient

Solved cases below.
CCCCCO [pentan-1-ol] + CC(C)C[P+](C)(CC(C)C)CC(C)C.Cc1ccc(S(=O)(=O)[O-])cc1 | 0.34
CCCCO [butan-1-ol] + CC(C)C[P+](C)(CC(C)C)CC(C)C.Cc1ccc(S(=O)(=O)[O-])cc1 | 0.319
c1ccccc1 [benzene] + CC(C)C[P+](C)(CC(C)C)CC(C)C.Cc1ccc(S(=O)(=O)[O-])cc1 | 1.25

Any idea what activity coefficient was measured for O [water] + CC(C)C[P+](C)(CC(C)C)CC(C)C.Cc1ccc(S(=O)(=O)[O-])cc1 ?
0.534

====

So I've got a bunch of compounds here, and I need their activity coefficient values.
- Measurement protocol: activity coefficient (dimensionless); of the first substance listed, at infinite dilution; xn = mol fraction of the nth substance listed
- Cond: 308.15 K; Liquid; Chromatography; x1 = 0
Give bare numbers.

Solved cases below.
C#CCCC [1-pentyne] + CC(C)C[P+](C)(CC(C)C)CC(C)C.Cc1ccc(S(=O)(=O)[O-])cc1 | 2.55
COC(C)(C)C [2-methoxy-2-methylpropane] + CC(C)C[P+](C)(CC(C)C)CC(C)C.Cc1ccc(S(=O)(=O)[O-])cc1 | 11
CO [methanol] + CC(C)C[P+](C)(CC(C)C)CC(C)C.Cc1ccc(S(=O)(=O)[O-])cc1 | 0.164

Please state, for each entry, its recorded activity coefficient.
1. C=CCCCCCC [oct-1-ene] + CC(C)C[P+](C)(CC(C)C)CC(C)C.Cc1ccc(S(=O)(=O)[O-])cc1
2. C#CCCCC [1-hexyne] + CC(C)C[P+](C)(CC(C)C)CC(C)C.Cc1ccc(S(=O)(=O)[O-])cc1

15
2.48

Please state, for each entry, its recorded activity coefficient.
1. CCCO [propan-1-ol] + CC(C)C[P+](C)(CC(C)C)CC(C)C.Cc1ccc(S(=O)(=O)[O-])cc1
2. c1ccsc1 [thiophene] + CC(C)C[P+](C)(CC(C)C)CC(C)C.Cc1ccc(S(=O)(=O)[O-])cc1

1: 0.278; 2: 0.848

====

- Measurement protocol: activity coefficient (dimensionless); of the first substance listed, at infinite dilution; xn = mol fraction of the nth substance listed
- Cond: 298.15 K; Liquid; Chromatography; x1 = 0
Label Fulfilled when activity coefficient < 3; otherwise Not fulfilled.

C#CCCCCCC [1-octyne] + CC(C)C[P+](C)(CC(C)C)CC(C)C.Cc1ccc(S(=O)(=O)[O-])cc1 | Not fulfilled
CCCCCCCCCC [decane] + CC(C)C[P+](C)(CC(C)C)CC(C)C.Cc1ccc(S(=O)(=O)[O-])cc1 | Not fulfilled
c1ccccc1 [benzene] + CC(C)C[P+](C)(CC(C)C)CC(C)C.Cc1ccc(S(=O)(=O)[O-])cc1 | Fulfilled
Cc1ccc(C)cc1 [1,4-dimethylbenzene] + CC(C)C[P+](C)(CC(C)C)CC(C)C.Cc1ccc(S(=O)(=O)[O-])cc1 | Fulfilled
CCCCC [pentane] + CC(C)C[P+](C)(CC(C)C)CC(C)C.Cc1ccc(S(=O)(=O)[O-])cc1 | Not fulfilled

# TODO verify activity coefficient < 3 strictly for this compound: C1CCCCCC1 [cycloheptane] + CC(C)C[P+](C)(CC(C)C)CC(C)C.Cc1ccc(S(=O)(=O)[O-])cc1
Not fulfilled

# TODO verify activity coefficient < 3 strictly for this compound: C#CCCCCC [1-heptyne] + CC(C)C[P+](C)(CC(C)C)CC(C)C.Cc1ccc(S(=O)(=O)[O-])cc1
Fulfilled

# TODO verify activity coefficient < 3 strictly for this compound: C1CCOC1 [tetrahydrofuran] + CC(C)C[P+](C)(CC(C)C)CC(C)C.Cc1ccc(S(=O)(=O)[O-])cc1
Fulfilled

# TODO verify activity coefficient < 3 strictly for this compound: C=CCCCC [hex-1-ene] + CC(C)C[P+](C)(CC(C)C)CC(C)C.Cc1ccc(S(=O)(=O)[O-])cc1
Not fulfilled

# TODO verify activity coefficient < 3 strictly for this compound: Cc1cccc(C)c1 [1,3-dimethylbenzene] + CC(C)C[P+](C)(CC(C)C)CC(C)C.Cc1ccc(S(=O)(=O)[O-])cc1
Fulfilled
